These compounds were tested on D(2) dopamine receptor (Rattus norvegicus); Ki is the recorded read-out.
Sequence (P61169 whole entry): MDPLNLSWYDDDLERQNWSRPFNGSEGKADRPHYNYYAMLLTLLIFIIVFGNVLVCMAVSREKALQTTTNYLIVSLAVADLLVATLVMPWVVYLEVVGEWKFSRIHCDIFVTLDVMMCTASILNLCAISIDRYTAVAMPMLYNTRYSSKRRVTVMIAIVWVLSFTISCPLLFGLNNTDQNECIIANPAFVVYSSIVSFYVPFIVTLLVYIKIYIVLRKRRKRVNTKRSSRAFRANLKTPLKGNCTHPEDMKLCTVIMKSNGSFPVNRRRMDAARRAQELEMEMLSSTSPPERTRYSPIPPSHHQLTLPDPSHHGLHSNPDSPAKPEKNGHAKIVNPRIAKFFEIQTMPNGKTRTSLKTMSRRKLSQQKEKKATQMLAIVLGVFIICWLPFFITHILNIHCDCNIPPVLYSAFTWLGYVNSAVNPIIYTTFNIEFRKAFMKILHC
The answer is to be given in µM; state only the numeric part.

Request: Retrieve Ki on D(2) dopamine receptor (Rattus norvegicus); query CCCN(CCN1CCN(c2cccc(Cl)c2Cl)CC1)C1CCc2nc(N)sc2C1 (stereo in doubt; (+)-33)
Response: 0.0442

Request: # return Ki of CCCN(CCN1CCN(c2ccccc2)CC1)C1CCc2nc(N)sc2C1 (single isomer, unassigned; (+)) (system: D(2) dopamine receptor (Rattus norvegicus))
Response: 1.98

Request: Fill in: Ki on D(2) dopamine receptor (Rattus norvegicus), entry CCCN(CCN1CCN(c2ccccc2)CC1)C1CCc2[nH]ncc2C1 (centres undefined)
Response: 1.83

Request: Report Ki from D(2) dopamine receptor (Rattus norvegicus) testing of CCCN(CCN1CCN(c2ccccc2)CC1)C1CCc2nc(N)sc2C1 (stereo in doubt; (-)-31)
Response: 0.243
